The reported measurements were obtained from paper PMC10644722.

Biological target: PTP1B (Homo sapiens, UniProt P18031)
Sequence (P18031 1-400): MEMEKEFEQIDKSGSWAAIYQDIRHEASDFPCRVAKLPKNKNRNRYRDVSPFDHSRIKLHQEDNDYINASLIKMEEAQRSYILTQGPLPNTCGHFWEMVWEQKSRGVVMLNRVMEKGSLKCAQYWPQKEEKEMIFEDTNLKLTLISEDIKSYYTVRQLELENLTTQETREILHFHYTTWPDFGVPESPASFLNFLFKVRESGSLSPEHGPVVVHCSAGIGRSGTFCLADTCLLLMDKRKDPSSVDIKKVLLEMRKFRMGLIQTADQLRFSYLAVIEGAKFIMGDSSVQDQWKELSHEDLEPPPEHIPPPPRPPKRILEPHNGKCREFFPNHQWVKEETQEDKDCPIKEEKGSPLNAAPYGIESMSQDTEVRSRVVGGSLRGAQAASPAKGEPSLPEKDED
Assay: Kinetic analysis of PTP1B inhibition
Format: biochemical
Conditions: non-competitive model (Eq. 2); read-out: KIcu
endpoint_label: Ki
Dear colleague, please send the value followed by its unit.

Field Ki (entry C[C@H]1C(=O)CC[C@@H]2[C@]1(C)CC[C@H]1[C@@]2(C)CC[C@@]2(C)[C@@H]3CC(C)(C)CC[C@]3(CO)CC[C@]12C ) reads 9 µM

###

Biological target: hPTP1B1-400 (Homo sapiens)
Assay: PTP1B inhibition assay (spectrophotometric, 4-nitrophenyl phosphate)
Assay type: biochemical
Settings: pIC50, negative log of the IC50 in Molar
endpoint_label: pIC50
Expect pIC50 as a plain number equal to -log10 of the molar concentration.

Measured pIC50 of CC[C@H](/C=C/[C@@H](C)[C@H]1CC[C@H]2C3=CC[C@H]4C[C@@H](OC(C)=O)CC[C@]4(C)[C@H]3CC[C@]12C)C(C)C [Compound 85, α-Spinasterol acetate] : 3.56

Measured pIC50 of COc1cc(CCc2ccc(OC)c(OC)c2)cc(OC)c1 : 3.38

Per the record, COc1cc(OC2OC(CO)C(O)C(O)C2O)c2c(-c3ccc(O)c(O)c3)cc(=O)oc2c1 (stereo not drawn) has pIC50 of 4.39

###

Please go through the items and note down their IC50.
Biological target: hPTP1B1-400 (Homo sapiens, UniProt P18031)
Assay: PTP1B inhibition assay (spectrophotometric, 4-nitrophenyl phosphate)
Type: biochemical
Conditions: LOGx0 of the IC50 curve, DoseResp model fit, Origin 8.0; axis C (mM)

Considering COc1cc(OC2OC(CO)C(O)C(O)C2O)c2c(-c3ccc(O)c(O)c3)cc(=O)oc2c1 (stereo not drawn) [Compound 2] , its IC50 with hPTP1B1-400 (Homo sapiens, UniProt P18031) was recorded as 0.0404 mM

Bench note, hPTP1B1-400 (Homo sapiens, UniProt P18031): CC[C@H](/C=C/[C@@H](C)[C@H]1CC[C@H]2C3=CC[C@H]4C[C@@H](OC(C)=O)CC[C@]4(C)[C@H]3CC[C@]12C)C(C)C [Compound 85, α-Spinasterol acetate] , IC50 reads 0.277 mM

Entry COc1cc(CCc2ccc(OC)c(OC)c2)cc(OC)c1 [Compound 91, 3,3',4',5-Tetramethoxybibenzyl] , tested on hPTP1B1-400 (Homo sapiens, UniProt P18031), has a reported IC50 of 0.42 mM

###

Assign log10 of IC50 to each entry below.
Target: hPTP1B1-400 (Homo sapiens, UniProt P18031)
Experiment: PTP1B inhibition assay (spectrophotometric, 4-nitrophenyl phosphate)
Format: biochemical
Conditions: negative log of the IC50 in Molar; read-out: pIC50 (converted)
Description: The inhibitory activity was determined as a percentage compared to the blank (Buffer) according to the following equation: %InhibitionPTP1B=1−A405s/A405b×100%, (1) where A405(s) is the ΔA of the sample (At20 − At0), A405(b) is the ΔA of the blank obtained in the same manner as that of the sample. Using the data obtained, the enzyme inhibition curve was plotted, for which the average percentage of inhibition was plotted as a function of the inhibitor concentration.
Please be aware that the numbers have been log10-transformed from IC50 in µM.

Please fill in: log10 of IC50 reported for C=CC(C)(C)C12CC3(O)c4nc5ccccc5c(=O)n4C(C(C)C)C(=O)N3C1N(C(C)=O)c1ccccc12 (stereo not drawn) [Compound 96, Albolutein A] = 1.28

The reported value for C[C@H]1C(=O)CC[C@@H]2[C@]1(C)CC[C@H]1[C@@]2(C)CC[C@@]2(C)[C@@H]3CC(C)(C)CC[C@]3(C)CC[C@]12C [Compound 56, Friedelin] in terms of log10 of IC50 is 2.95

log10 of IC50 recorded for this compound, CC(C)(O)C(O)C1CC(C2CCC3(C)C4=CCC5C(C)(C)C(=O)CCC5(C)C4CCC23C)C(O)O1 (stereo not drawn) [Compound 10, Melianodiol] , is 1.96

The compound C=C(C)C(C)(C)CCC(C)C1CCC2(C)C3CCC4C(C)(CCC(O)C4(C)C)C3=CCC12C (stereo not drawn) [Compound 64] showed log10 of IC50 equal to 2.60

Per the records, this compound ( COc1cc(C)c2c(=O)c3c(O)cc(OC)cc3oc2c1 [Compound 9, Lichexanthone] ) has log10 of IC50 equal to 1.95

log10 of IC50 in this record for O=c1c(O[C@@H]2O[C@H](CO)[C@H](O)[C@H](O)[C@H]2O)c(-c2ccc(O)cc2)oc2cc(O)cc(O)c12 [Compound 51, Trifolin] : 2.93
